Source listed as paper PMC9486129.

- TGT: T1, ZAP-70 tSH2 WT (1–256)
- T1 chain: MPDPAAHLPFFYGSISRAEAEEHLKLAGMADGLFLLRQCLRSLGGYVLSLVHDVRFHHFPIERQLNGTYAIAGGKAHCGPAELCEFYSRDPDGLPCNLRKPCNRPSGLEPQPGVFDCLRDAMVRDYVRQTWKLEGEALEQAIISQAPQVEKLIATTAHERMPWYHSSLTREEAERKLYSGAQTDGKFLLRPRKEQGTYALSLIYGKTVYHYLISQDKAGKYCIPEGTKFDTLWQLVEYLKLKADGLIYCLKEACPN
- EXPERIMENT_SUMMARY: ITC; Kd2, second site
Where no end group is shown, it is not given here. [ ]: non-standard residue; d: D form. pY = N[C@@H](Cc1ccc(OP(=O)(O)O)cc1)C(=O)O

BINDER	Kd (µM)
NQL[pY]NELNLGRRAE[pY]DVLD [ITAM-Y2P-ζ1 E13A]	9.8
